Data provenance: the supplement of paper PMC8728848

# study target: Neu5Ac(a2-8)Neu5Ac(a2-8)Neu5Ac(a2-8)Neu5Ac(a2-3)[GalNAc(b1-4)]Gal(b1-4)Glc
# assay method text: glycan array binding signal (z-score within array); higher = stronger binding
# recorded conditions: glycan notation: IUPAC condensed, linker removed
This is one part of a sample in which the strongest signals are shown more often than they occur.
I'd be grateful if you could share measured glycan array binding signal (z-score) for these entries.
Numbers only.

binder | glycan array binding signal (z-score)
Gz-CVNH (Gibberella zeae) (protein) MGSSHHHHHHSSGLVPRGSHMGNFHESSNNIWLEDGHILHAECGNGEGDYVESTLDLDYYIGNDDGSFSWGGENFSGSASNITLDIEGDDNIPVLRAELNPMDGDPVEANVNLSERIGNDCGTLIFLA | -0.142
SAG1 (Toxoplasma gondii), P13664 (protein) MSVSLHHFIISSGFLTSMFPKAVRRAVTAGVFAAPTLMSFLRCGVMASDPPLVANQVVTCPDKKSTAAVILTPTENHFTLKCPKTALTEPPTLAYSPNRQICPAGTTSSCTSKAVTLSSLIPEAEDSWWTGDSASLDTAGIKLTVPIEKFPVTTQTFVVGCIKGDDAQSCMVTVTVQARASSVVNNVARCSYGADSTLGPVKLSAEGPTTMTLVCGKDGVKVPQDNNQYCSGTTLTGCNEKSFKDILPKLTENPWQGNASSDKGATLTIKKEAFPAESKSVIIGCTGGSPEKHHCTVKLEFAGAAGSAKSAAGTASHVSIFAMVIGLIGSIAACVA | -0.241
SrpA (Streptococcus sanguis) (protein) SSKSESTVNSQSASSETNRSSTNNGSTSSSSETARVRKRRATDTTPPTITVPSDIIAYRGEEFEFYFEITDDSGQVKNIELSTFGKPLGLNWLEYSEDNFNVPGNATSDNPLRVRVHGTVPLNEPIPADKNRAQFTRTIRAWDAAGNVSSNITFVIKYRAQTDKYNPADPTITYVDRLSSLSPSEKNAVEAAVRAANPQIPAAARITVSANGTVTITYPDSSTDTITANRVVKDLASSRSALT | 2.24
GH98CBM51-1 (Streptococcus pneumoniae) (protein) MTYLSDMDWSSATHGDIDKTKTVQKDAPFTTGNKGEHTKISLLTSDDKVKYFDKGIGTVADSPSVISYDISGQGFEKFETYIGIDQSANSSRSDHAVVDRIEIEIDGKVVYSSSVTNPEGFRYNTQAQFISVTIPQNAKKISLKSFAGEHTWGDEVVFADAKLIKTVST | -0.184

Would you kindly look at the next entry?
Can you share its glycan array binding signal (z-score)? I mean this binder: FaeGab (Escherichia coli) (protein) WMTGDFNGSVDIGGSITADDYRQKWEWKVGTGLNGFGNVLNDLTNGGTKLTITVTGNKPILLGRTKEAFATPVSGGVDGIPQIAFTDYEGASVKLRNTDGETNKGLAYFVLPMKNAEGTKVGSVKVNASYAGVFGKGGVTSADGELFSLFADGLRAIFYGGLTTTVSGAALTSGSAAAARTELFGSLSRNDILGQIQRVNANITSLVDVAGSYREDMEYTDGTVVSAAYALGIANGQTIEATFNQAVTTSTQWSAPLNVAITYY
-0.352
